- Tested on: morphine induced cAMP overshoot
- Assay Explanation: Inhibition of morphine-induced cAMP overshoot, qHTS of LOPAC library
- Assay type: cell-based
- Stated Conditions: 18 h, read-out: Potency
Structures can show the parent of a compound that is named as a salt.
Measured Attribute: log10 of IC50 (log10 of the value in µM)
In our notation, the value equals log10 of IC50 in µM.

Solved cases below.
> print(dat)
                                   molecule    val
1  CC1(C(=O)O)C2CCC(O2)C1(C)C(=O)O (stereo not shown)   1.16
2  C=CCN1CC[C@]23CCCC[C@H]2[C@H]1Cc1ccc(O)cc13 [Levallorphan tartrate]  -0.48
3  Oc1ccc2c3c1O[C@H]1c4oc5ccccc5c4C[C@@]4(O)[C@@H](C2)N(CC2CC2)CC[C@]314 [Naltriben methanesulfonate]   0.36

Hi team, please reply with log10 of IC50 for each item in this list.
1. Oc1ccc2c3c1O[C@H]1c4[nH]c5ccccc5c4C[C@@]4(O)[C@@H](C2)N(CC2CC2)CC[C@]314 [Naltrindole hydrochloride]
2. O=C1CC[C@@]2(O)[C@H]3Cc4ccc(O)c5c4[C@@]2(CCN3CC2CC2)[C@H]1O5 [Naltrexone hydrochloride]
3. C[C@@]12C(=O)OC(=O)[C@]1(C)[C@H]1CC[C@@H]2O1
4. CCC(=O)c1ccc2c(c1)N(CCCN(C)C)c1ccccc1S2 [Propionylpromazine hydrochloride]

1: -0.09; 2: -0.92; 3: 1.11; 4: 1.21
